Observed AC50, system Cytochrome P450 2D6 (Homo sapiens, UniProt P10635).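 Note: CYP2D6 member of a cytochrome P450 panel assay.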

Nc1ccc(-c2sc(N)nc2-c2ccccc2)cc1	17.8 µM (inconclusive)
COc1ccc(/C=C/C(=O)c2ccoc2)cc1	25.1 µM (inconclusive)
Cc1cc(/C=N/n2cnnc2)c(C)n1-c1ccc(OCc2ccccc2F)cc1	17.8 µM (inconclusive)
CN(C)c1ccc(-c2nc(NC3CCNCC3)c3ccccc3n2)cc1	39.8 µM (inconclusive)

I looked up COc1ccc(CNc2nc(-c3ccc4c(c3)OCO4)nc3ccccc23)c(OC)c1 and its AC50 for Cytochrome P450 2D6 (Homo sapiens, UniProt P10635) was 12.6 µM (inconclusive)

I looked up COc1ccc2[nH]cc(CCNc3ccnc(-c4ccc(C(=O)N(C)C)cc4)n3)c2c1 and its AC50 for Cytochrome P450 2D6 (Homo sapiens, UniProt P10635) was 25.1 µM (inconclusive)

I looked up O=C1CCC(c2ccccc2)=NN1c1nc2ccccc2s1 and its AC50 for Cytochrome P450 2D6 (Homo sapiens, UniProt P10635) was 3.98 µM (inconclusive)

I looked up COC(=O)N1CCN(C(=O)Cc2ccc(Cl)c(Cl)c2)[C@H](CN2CCCC2)C1 and its AC50 for Cytochrome P450 2D6 (Homo sapiens, UniProt P10635) was 20 µM (inconclusive)

I looked up O=C(Oc1ccccc1)N1CCC2(CCN(Cc3ccccc3)CC2)CC1 and its AC50 for Cytochrome P450 2D6 (Homo sapiens, UniProt P10635) was 39.8 µM (inconclusive)

I looked up c1csc(CN2CC[C@@]3(CCCNC3)C2)n1 and its AC50 for Cytochrome P450 2D6 (Homo sapiens, UniProt P10635) was 12.6 µM (inconclusive)

I looked up Cc1ccc(Nc2nc(-c3sc(NC(=O)c4ccc([N+](=O)[O-])cc4)nc3C)cs2)cc1 and its AC50 for Cytochrome P450 2D6 (Homo sapiens, UniProt P10635) was 0.01 µM (inconclusive)

I looked up CN(C)c1ccc(-c2nc(Nc3ccncc3)c3ccccc3n2)cc1 and its AC50 for Cytochrome P450 2D6 (Homo sapiens, UniProt P10635) was 25.1 µM (inconclusive)

====

test-target: Calpain-2 catalytic subunit (Sus scrofa, UniProt P43367)
Sequence (P43367 whole entry): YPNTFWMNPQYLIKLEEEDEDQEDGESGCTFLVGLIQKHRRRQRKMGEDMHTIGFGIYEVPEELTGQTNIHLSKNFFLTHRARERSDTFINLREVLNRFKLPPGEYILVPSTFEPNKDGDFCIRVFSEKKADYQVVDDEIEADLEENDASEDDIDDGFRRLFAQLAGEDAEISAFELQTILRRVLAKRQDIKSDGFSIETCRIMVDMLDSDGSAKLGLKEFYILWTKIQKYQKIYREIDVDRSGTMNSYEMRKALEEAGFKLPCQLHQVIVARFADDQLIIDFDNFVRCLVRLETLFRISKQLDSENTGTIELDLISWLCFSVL
assay-comment: m-calpain protease blockers, concentration series – biochemical, fluorogenic peptide substrate, dose response (AID 1420)
Assay type: functional
measured-property: IC50

I looked up CC(C)(C)OC(=O)NCCCC[C@H](NC(=O)c1nc[nH]c1C(=O)N[C@@H](CCCCNC(=O)OC(C)(C)C)C(=O)OC(C)(C)C)C(=O)OC(C)(C)C and its IC50 for Calpain-2 catalytic subunit (Sus scrofa, UniProt P43367) was 3.89 µM (not active)

I looked up Cc1cc(C)c(C(=O)COC(=O)CCNS(=O)(=O)c2c(Cl)cccc2Cl)cc1C and its IC50 for Calpain-2 catalytic subunit (Sus scrofa, UniProt P43367) was 4.97 µM (not active)

I looked up Cc1nc(Nc2ccccc2)sc1C(=O)c1ccccc1 and its IC50 for Calpain-2 catalytic subunit (Sus scrofa, UniProt P43367) was 3.41 µM (not active)

====

test-target: Carboxy-terminal domain RNA polymerase II polypeptide A small phosphatase 1 (Homo sapiens, UniProt Q9GZU7)
Sequence (Q9GZU7 whole entry, the tested form may be a part): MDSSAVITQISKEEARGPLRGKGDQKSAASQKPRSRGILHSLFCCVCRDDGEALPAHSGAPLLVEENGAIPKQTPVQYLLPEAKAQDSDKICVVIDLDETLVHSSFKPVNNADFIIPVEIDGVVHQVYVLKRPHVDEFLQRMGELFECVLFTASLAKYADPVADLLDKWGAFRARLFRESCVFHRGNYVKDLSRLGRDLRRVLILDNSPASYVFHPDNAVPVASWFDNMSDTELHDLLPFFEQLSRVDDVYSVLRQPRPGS
assay-comment: CTDSP1 inhibitors, concentration-response, biochemical, absorbance readout, ultra-high-throughput screen actives (AID 540297)
Type: functional
Calls of active or inactive are those of the source.
measured-property: IC50

Use these answered entries as a reference point.
O=C(COC(=O)C1CCN(S(=O)(=O)c2cc([N+](=O)[O-])ccc2Cl)CC1)Nc1ncc(Cl)cc1Cl	4.29 µM (active)
Cc1cc(C=O)c(C)n1-c1ccc(Cl)c(C(=O)O)c1	4.61 µM (active)
O=C(COc1ccc(/C=N/NC(=O)c2ccc(O)cc2)cc1)Nc1cccc([N+](=O)[O-])c1	2.98 µM (active)

Reported IC50 for CCN(CC)P(=O)(c1n(CC)cc[n+]1CC)N(CC)CC was 3.98 µM (active)

Reported IC50 for O=C(CCNC(=O)c1ccccc1)NN=Cc1ccc(Br)o1 was 10.2 µM (active)

Reported IC50 for O=C(Nc1ccc(S(=O)(=O)Nc2nccs2)cc1)c1ccc(O)nc1 was 7.11 µM (active)

Reported IC50 for CC(C)CCC(C(=O)NC(C)c1ccccc1)C(=O)NC(C)c1ccccc1 (configuration not stated) was 11.7 µM (active)
